Experiment: In vivo pharmacokinetics in dog
Design: species or system male Beagle dogs
Conditions: male, Beagle, plasma, IV 1.0 mg/kg, 5 min, mean
measure: concentration at 5 min

GET /value?item= Cc1c(C(=O)Nc2ccc3c(c2)B(O)OC3)nnn1-c1ccccn1 [Compound 23] &field=concentration at 5 min returns 1120 ng/mL

====

Assay: Plasma-protein binding, rat
Type: in vitro ADME
Settings: Sprague-Dawley, pH 7.4
measure: fraction unbound at 6 h, 2 µM
Format: numeric value only, no unit, no commentary.

GET /value?item= Cc1c(C(=O)Nc2ccc3c(c2)B(O)OC3)nnn1-c1ccccn1 &field=fraction unbound at 6 h, 2 µM returns 0.08
